Reported endpoint: IC50

Form field IC50 for item CN1CN(C2O[C@H](CO)[C@@H](O)[C@H]2O)C2=NC=NC(O)C21 (stereo partly specified) on Eukaryotic translation initiation factor 4E (Homo sapiens): > 400 µM
